For reference, IC50 measured on SARS-CoV-2 Main Protease (SARS-CoV-2) (UniProt P0DTD1):
observedProperty: IC50 (µM)

>>> number("CN(Cc1ccc(Cl)cc1)c1cc(Cl)cc(CC(=O)Nc2cncc3ccccc23)c1")
2.42
>>> number("CNC(=O)C1(CC(=O)Nc2cncc3ccccc23)CCOc2ccc(Cl)cc21 (stereo not drawn)")
30.7
>>> number("CC(C)(C)c1csc(Nc2cc(Cl)cc(CC(=O)Nc3cncc4ccccc34)c2)n1")
2.09
>>> number("CNC(=O)CN1Cc2ccc(Cl)cc2C2(CCN(c3cncc4ccc(F)cc34)C2=O)C1 (stereo not drawn)")
0.267
>>> number("CCC(=O)Nc1ccc(N(Cc2cscn2)C(=O)Cn2nnc3ccccc32)cc1")
25
>>> number("CC1(c2ccc(N(C(=O)c3cocn3)C(C(=O)NCCc3cccc(F)c3)c3cccnc3)cc2)OCCO1 (stereo not drawn)")
83.1

====

Target: SARS-CoV-2 Main Protease (SARS-CoV-2) (UniProt P0DTD1)
Listed here: items and their measured IC50.
observedProperty: IC50

>>> result("CC(C)(C)c1ccc(N(C(=O)c2ccc(=O)[nH]n2)C(C(=O)NCCc2cccc(F)c2)c2cccnc2)cc1 (stereo not drawn)")
"> 99.5 µM"
>>> result("Cc1[nH]c2ccccc2c1C(=O)CSc1nc2cc(Cl)cnc2[nH]1")
"> 99.5 µM"
>>> result("Cc1cc(C(=O)Nc2cnc3nccn3c2)nn1-c1ccc(F)cc1")
"> 99.5 µM"

====

pIC50: −log10 of the molar value.
For reference, pIC50 measured on SARS-CoV-2 Main Protease (SARS-CoV-2):
observedProperty: pIC50

>>> number("O=C(CN1CC(C(=O)Nc2cncc3ccccc23)c2cc(Cl)ccc2C1=O)NCC1CCC1 (stereo not given)")
6.97
>>> number("CCC1(C(=O)Nc2cncc3ccccc23)CNC(=O)c2ccc(Cl)cc21 (stereo not given)")
5.93
>>> number("Cn1nncc1C(=O)N1Cc2ccc(Cl)cc2C(C(=O)Nc2cncc3ccccc23)C1 (stereo not given)")
6.40

====

Biological target: SARS-CoV-2 Main Protease (SARS-CoV-2)
observedProperty: IC50

>>> result("Cn1nncc1C(=O)N(c1ccc(C(C)(C)C)cc1)C(C(=O)NCCc1cccc(F)c1)c1cccnc1 (stereo not drawn)")
"> 99.5 µM"
>>> result("O=C(Cc1cc(Cl)cc(Nc2ccccc2)c1)Nc1cncc2ccccc12")
"> 9.95 µM"
>>> result("C=CC(=O)N(Cc1cccc(Cl)c1)C(C(=O)NCCc1cccc(F)c1)c1cnccc1C (stereo not drawn)")
"> 99.5 µM"

====

Target: SARS-CoV-2 Main Protease (SARS-CoV-2) (UniProt P0DTD1)
Listed here: items and their measured IC50.
observedProperty: IC50

>>> result("O=C(Nc1[nH]nc2cccc(F)c12)C1CCOc2ccc(Cl)cc21 (stereo not drawn)")
"> 99.5 µM"
>>> result("COc1cc(N(C(=O)c2cocn2)C(C(=O)NCCc2cccc(F)c2)c2cccnc2)ccc1S(=O)(=O)N(C)C (stereo not drawn)")
"> 99.5 µM"
>>> result("O=c1c2ccccc2c(-c2ccc(Br)cc2)nn1CC(O)CN1CCOCC1 (stereo not drawn)")
"> 99.5 µM"

====

Biological target: SARS-CoV-2 Main Protease (SARS-CoV-2) (UniProt P0DTD1)
observedProperty: IC50

>>> result("COC(=O)C1CC1C(=O)N1CCC(c2c[nH]c3ncccc23)CC1 (stereo unspecified)")
"> 99.5 µM"
>>> result("Cc1ccc(-n2c(C)c(C)n3c4c(=O)n(CCCO)c(=O)n(C)c4nc23)cc1Cl")
"> 99.5 µM"
>>> result("CCC(C)c1ccc(C(NCC(=O)Nc2ccc3[nH]c(=O)[nH]c3c2)c2cccs2)cc1 (stereo unspecified)")
"> 99.5 µM"
>>> result("Cc1ccncc1NC(=O)CN(C)S(=O)(=O)c1cccc2cccnc12")
"> 99 µM"
>>> result("CC(NC(=O)c1c(Cl)nc2ccccn12)c1nnc2ccccn12 (stereo unspecified)")
"> 99.5 µM"
>>> result("Cn1cnnc1-c1cccc(NS(=O)(=O)c2c(Cl)nc3sccn23)c1")
"> 99.5 µM"
